Origin of measurements: patent US5457105A

- Test system: human naso-pharyngeal cancer cell line KB
- METHOD_NOTES: Test (b): in vitro inhibition of growth of the human naso-pharyngeal cancer cell line KB
- Type: cell-based
- ASSAY_CONDITIONS: Homo sapiens, 72 h; KB cells; EGF (10 ng/ml); 3 days; MTT
ENDPOINT_NAME: pIC50
# reply with the number alone; pIC50 is -log10 of concentration in mol/L

INSERT INTO results (smiles_record, target_under_test, endpoint_name, result_number) VALUES
  ('CC(=O)Nc1ccc2ncnc(Nc3cccc(C)c3)c2c1', 'human naso-pharyngeal cancer cell line KB', 'pIC50', 6.19),
  ('COc1cc2c(Nc3cccc(C)c3)ncnc2cc1OCCO', 'human naso-pharyngeal cancer cell line KB', 'pIC50', 6.85),
  ('COc1cc2ncnc(Nc3cccc(C)c3)c2cc1OC', 'human naso-pharyngeal cancer cell line KB', 'pIC50', 7.30);

Consider now this further molecule.
Form: item `COc1cc2ncnc(Nc3cccc(C(F)(F)F)c3)c2cc1OC` ; test system human naso-pharyngeal cancer cell line KB; pIC50: 6.52

----------
- TARGET_UNDER_TEST: receptor tyrosine kinase (Homo sapiens)
- Construct: obtained in partially purified form from A-431 cells; endogenous in cells; detergent-solubilised membrane fraction
- Sequence (P00533 25-1210): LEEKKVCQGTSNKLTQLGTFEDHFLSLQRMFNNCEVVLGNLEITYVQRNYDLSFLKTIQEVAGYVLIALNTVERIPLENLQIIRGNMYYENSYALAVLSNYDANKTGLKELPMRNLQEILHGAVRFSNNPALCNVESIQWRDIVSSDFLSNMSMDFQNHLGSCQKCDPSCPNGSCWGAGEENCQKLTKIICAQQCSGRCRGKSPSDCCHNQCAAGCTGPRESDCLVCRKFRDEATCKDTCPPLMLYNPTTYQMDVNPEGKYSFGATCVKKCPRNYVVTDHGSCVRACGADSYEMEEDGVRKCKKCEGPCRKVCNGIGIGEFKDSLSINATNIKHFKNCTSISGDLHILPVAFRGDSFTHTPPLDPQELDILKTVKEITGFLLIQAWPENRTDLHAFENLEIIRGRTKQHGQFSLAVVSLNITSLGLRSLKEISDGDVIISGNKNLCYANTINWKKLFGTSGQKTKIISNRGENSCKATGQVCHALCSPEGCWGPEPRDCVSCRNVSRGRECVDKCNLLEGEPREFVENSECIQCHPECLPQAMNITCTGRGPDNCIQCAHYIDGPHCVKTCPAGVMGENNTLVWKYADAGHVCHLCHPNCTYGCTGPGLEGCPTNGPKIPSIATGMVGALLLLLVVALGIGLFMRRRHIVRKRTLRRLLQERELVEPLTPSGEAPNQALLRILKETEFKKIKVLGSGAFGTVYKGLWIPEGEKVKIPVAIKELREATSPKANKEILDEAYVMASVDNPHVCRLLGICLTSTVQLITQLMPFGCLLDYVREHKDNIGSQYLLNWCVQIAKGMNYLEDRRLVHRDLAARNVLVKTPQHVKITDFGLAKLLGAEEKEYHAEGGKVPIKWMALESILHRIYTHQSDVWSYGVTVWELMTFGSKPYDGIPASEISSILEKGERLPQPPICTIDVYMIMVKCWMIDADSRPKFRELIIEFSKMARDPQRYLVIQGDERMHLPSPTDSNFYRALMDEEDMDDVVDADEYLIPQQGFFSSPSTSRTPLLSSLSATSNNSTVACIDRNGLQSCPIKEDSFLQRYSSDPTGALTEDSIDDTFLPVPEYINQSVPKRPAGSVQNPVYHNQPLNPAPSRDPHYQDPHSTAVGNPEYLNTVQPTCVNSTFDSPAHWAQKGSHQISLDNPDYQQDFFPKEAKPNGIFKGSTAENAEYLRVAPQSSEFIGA
- METHOD_NOTES: Test (a): in vitro inhibition of the enzyme receptor tyrosine kinase (from A-431 cells)
- ASSAY_CONDITIONS: EGF, 25° C., 10 minutes
ENDPOINT_NAME: pIC50
# reply with the number alone; pIC50 is -log10 of concentration in mol/L

# pIC50 (molecule: `COc1cc2ncnc(Nc3cccc(C)c3)c2cc1OC` ) is 8.30

# pIC50 (molecule: `COc1cc2ncnc(Nc3cccc(C(F)(F)F)c3)c2cc1OC` ) is 8.00

# pIC50 (molecule: `CC(=O)Nc1ccc2ncnc(Nc3cccc(C)c3)c2c1` ) is 8.00

# pIC50 (molecule: `COc1cc2c(Nc3cccc(C)c3)ncnc2cc1OCCO` ) is 8.30
